Biological target: human recombinant HDAC1 (Homo sapiens)
Construct: purchased Enzo Life Science, Inc. BML-SE456
Sequence (Q13547 whole entry): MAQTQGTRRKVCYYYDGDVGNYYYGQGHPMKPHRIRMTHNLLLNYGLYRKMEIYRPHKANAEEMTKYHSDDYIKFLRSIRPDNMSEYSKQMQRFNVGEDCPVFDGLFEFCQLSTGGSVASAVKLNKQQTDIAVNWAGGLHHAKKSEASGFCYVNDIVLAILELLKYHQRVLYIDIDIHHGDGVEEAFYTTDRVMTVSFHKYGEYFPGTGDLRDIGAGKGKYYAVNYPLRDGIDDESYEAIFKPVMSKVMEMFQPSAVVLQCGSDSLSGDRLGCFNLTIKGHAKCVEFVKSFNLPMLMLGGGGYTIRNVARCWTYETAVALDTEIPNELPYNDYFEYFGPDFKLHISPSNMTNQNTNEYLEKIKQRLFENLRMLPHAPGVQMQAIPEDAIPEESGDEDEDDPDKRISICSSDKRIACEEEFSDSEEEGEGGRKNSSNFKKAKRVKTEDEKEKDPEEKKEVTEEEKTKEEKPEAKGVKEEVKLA
Assay: HDAC1 enzyme activity inhibition (HDAC Fluorimetric Drug Discovery Kit)
Format: biochemical
Conditions: human recombinant HDAC1, Fluor de Lys substrate, 30° C. 60 minutes; read-out: HDAC1
MEASUREMENT_NAME: IC50

CCN1CCN(Cc2ccc(-c3cn(Cc4ccc(-c5nnc(C(F)F)o5)cn4)nn3)cc2)CC1 [Compound 4563] = > 50 µM
Fc1cc(-c2nnc(C(F)F)o2)cnc1Cn1cc(-c2cccc3[nH]ncc23)nn1 [Compound 19058] = > 50 µM
Fc1cc(-c2nnc(C(F)F)o2)ccc1Cn1cc(-c2ccc(CNC3CCCC3)cc2)nn1 [Compound 4609] = > 50 µM

Record Fc1cc(-c2nnc(C(F)F)o2)ccc1Cn1cc(-c2ccc(CN3CCC3)c(Cl)c2)nn1 [Compound 18712] ; system human recombinant HDAC1 (Homo sapiens); IC50 = > 50 µM

Item: Fc1cc(-c2nnc(C(F)F)o2)ccc1Cn1cc(-c2csc(CN3CC[C@@H](F)C3)c2)nn1 [Compound 18180] | System: human recombinant HDAC1 (Homo sapiens) | IC50: > 50 µM

# IC50 measured on human recombinant HDAC1 (Homo sapiens) for item Fc1cc(-c2nnc(C(F)F)o2)ccc1Cn1cc(-c2cccc(N3CCN(C4CCC4)CC3)n2)nn1 [Compound 17364] = > 50 µM

Observed IC50 on human recombinant HDAC1 (Homo sapiens), entry Fc1cc(-c2nnc(C(F)F)o2)ccc1Cn1cc(-c2ccc(CN3CC4(COC4)C3)cc2)nn1 [Compound 4523] , equals > 50 µM

// molecule Fc1cc(-c2nnc(C(F)F)o2)ccc1Cn1cc(-c2ccccc2CNC2CCC2)nn1 [Compound 4589] , assay human recombinant HDAC1 (Homo sapiens), IC50 value: > 50 µM

Field IC50 (human recombinant HDAC1 (Homo sapiens)), entry FC(F)c1nnc(-c2ccc(Cn3cc(-c4ccc(CN5CCC5)cc4)nn3)nc2)o1 [Compound 4558] : > 50 µM

====

Target: human recombinant HDAC6 (Homo sapiens)
Construct: purchased Calbiochem Inc. 382180
Sequence (Q9UBN7 1-1215): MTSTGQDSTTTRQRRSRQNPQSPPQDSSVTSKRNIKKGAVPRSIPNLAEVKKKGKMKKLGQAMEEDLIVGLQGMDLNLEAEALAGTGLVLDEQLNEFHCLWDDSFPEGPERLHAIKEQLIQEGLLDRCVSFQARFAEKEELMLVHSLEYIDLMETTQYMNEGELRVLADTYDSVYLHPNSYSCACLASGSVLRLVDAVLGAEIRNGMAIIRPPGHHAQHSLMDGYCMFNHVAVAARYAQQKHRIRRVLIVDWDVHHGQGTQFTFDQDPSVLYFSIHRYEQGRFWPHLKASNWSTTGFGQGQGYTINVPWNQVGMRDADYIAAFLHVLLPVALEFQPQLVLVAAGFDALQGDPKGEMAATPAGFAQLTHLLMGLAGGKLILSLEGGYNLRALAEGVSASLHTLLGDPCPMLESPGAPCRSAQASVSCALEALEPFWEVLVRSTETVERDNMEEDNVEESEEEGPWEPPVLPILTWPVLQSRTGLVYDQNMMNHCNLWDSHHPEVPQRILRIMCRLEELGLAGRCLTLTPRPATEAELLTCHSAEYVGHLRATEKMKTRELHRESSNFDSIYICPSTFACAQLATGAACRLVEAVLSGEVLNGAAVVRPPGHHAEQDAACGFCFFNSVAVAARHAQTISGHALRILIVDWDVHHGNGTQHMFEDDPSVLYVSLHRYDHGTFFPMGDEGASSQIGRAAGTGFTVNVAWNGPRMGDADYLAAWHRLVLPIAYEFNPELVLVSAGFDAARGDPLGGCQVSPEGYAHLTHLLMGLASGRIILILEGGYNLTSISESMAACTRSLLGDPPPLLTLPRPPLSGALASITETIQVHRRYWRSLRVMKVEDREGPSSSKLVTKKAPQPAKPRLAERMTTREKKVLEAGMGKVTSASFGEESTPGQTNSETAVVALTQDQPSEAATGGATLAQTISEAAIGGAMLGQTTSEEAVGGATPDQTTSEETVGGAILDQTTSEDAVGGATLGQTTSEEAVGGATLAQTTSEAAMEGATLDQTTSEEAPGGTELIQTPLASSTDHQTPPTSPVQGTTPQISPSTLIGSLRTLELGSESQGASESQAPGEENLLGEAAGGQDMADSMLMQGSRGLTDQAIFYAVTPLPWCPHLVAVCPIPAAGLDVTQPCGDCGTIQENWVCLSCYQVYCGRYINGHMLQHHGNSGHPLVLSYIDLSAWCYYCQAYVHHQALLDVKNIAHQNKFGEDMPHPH
Assay: HDAC6 enzyme activity inhibition (HDAC Fluorimetric Drug Discovery Kit)
Format: biochemical
Settings: human recombinant HDAC6; IC50 calculated with GraphPad Prism
pIC50: −log10 of the molar value.
MEASUREMENT_NAME: pIC50

Past entries and their recorded results:
CC(C)(F)CN1CCC(c2cccc(-c3cn(Cc4ccc(-c5nnc(C(F)F)o5)cc4F)nn3)c2)CC1 [Compound 4349] = 6.44
Fc1cc(-c2nnc(C(F)F)o2)ccc1Cn1cc(-c2cccc(NC3COC3)c2)nn1 [Compound 4332] = 7.38
CCCCN1CC(c2cn(Cc3ccc(-c4nnc(C(F)F)o4)cn3)nn2)C1 [Compound 3953] = 6.30
OCc1ccc(-c2cn(Cc3ccc(-c4nnc(C(F)F)o4)cc3F)nn2)cc1 [Compound 4476] = 7.31
OCCCc1cn(Cc2ccc(-c3nnc(C(F)F)o3)cn2)nn1 [Compound 3833] = 6.37
Fc1cc(-c2nnc(C(F)F)o2)ccc1Cn1cc(-c2ccc(CN3CCC3)cc2)nn1 [Compound 4466] = 8.14

[P] CC(C)(F)C(=O)Nc1cccc(-c2cn(Cc3ccc(-c4nnc(C(F)F)o4)cn3)nn2)c1 [Compound 3987]
[Q] FC(F)c1nnc(-c2ccc(Cn3cc(-c4cccc(-n5ccnc5)c4)nn3)nc2)o1 [Compound 4075]
[R] CN1CCN(c2ccc(-c3cn(Cc4ccc(-c5nnc(C(F)F)o5)cn4)nn3)cc2)CC1 [Compound 4107]
[S] Fc1ccc(N2CCN(C3COC3)CC2)cc1-c1cn(Cc2ccc(-c3nnc(C(F)F)o3)cc2)nn1 [Compound 4455]
Reorder: pIC50, max to min. Labels, ranked as asked. P, Q, R, S

[I] CN1CCN(c2cccc(-c3cn(Cc4ccc(-c5nnc(C(F)F)o5)cn4)nn3)c2)CC1 [Compound 3867]
[II] CC(C)(C)OC(=O)Nc1cccc(-c2cn(Cc3ccc(-c4nnc(C(F)F)o4)cc3)nn2)c1 [Compound 3698]
Returns: the label, I or II , whose recorded pIC50 is the lower number. Write down the label attached to your selection. II

====

Biological target: human recombinant HDAC6 (Homo sapiens)
Construct: purchased Calbiochem Inc. 382180
Sequence (Q9UBN7 1-1215): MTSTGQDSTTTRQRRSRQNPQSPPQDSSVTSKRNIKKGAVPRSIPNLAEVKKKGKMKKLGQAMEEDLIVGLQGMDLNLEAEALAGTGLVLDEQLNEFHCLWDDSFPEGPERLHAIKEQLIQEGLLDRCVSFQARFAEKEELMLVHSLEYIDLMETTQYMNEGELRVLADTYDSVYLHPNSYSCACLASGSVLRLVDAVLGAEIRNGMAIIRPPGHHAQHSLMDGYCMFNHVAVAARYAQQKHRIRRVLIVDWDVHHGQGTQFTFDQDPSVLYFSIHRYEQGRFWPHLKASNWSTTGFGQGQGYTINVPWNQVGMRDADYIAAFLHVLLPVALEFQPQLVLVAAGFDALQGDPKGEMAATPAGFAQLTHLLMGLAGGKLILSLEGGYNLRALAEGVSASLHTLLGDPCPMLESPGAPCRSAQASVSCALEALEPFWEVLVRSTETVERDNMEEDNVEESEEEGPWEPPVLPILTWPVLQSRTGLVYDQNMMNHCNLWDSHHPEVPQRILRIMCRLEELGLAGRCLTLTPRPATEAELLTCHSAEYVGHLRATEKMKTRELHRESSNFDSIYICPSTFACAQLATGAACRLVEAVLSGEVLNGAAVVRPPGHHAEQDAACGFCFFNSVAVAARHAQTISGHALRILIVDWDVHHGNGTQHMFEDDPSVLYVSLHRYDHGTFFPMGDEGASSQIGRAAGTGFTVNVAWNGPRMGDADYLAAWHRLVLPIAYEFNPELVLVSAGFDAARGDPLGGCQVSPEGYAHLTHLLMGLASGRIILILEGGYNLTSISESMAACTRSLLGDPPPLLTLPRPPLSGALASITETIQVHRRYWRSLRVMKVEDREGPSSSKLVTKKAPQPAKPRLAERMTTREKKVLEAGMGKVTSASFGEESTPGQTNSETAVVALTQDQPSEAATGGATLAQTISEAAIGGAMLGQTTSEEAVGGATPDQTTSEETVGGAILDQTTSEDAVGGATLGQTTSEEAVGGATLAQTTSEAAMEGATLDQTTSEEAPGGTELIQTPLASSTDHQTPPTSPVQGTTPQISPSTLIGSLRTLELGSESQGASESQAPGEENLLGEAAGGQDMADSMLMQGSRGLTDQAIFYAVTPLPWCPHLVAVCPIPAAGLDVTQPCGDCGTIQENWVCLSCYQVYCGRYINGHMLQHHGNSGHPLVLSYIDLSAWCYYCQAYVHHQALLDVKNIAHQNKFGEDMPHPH
Assay: HDAC6 enzyme activity inhibition (HDAC Fluorimetric Drug Discovery Kit)
Type: biochemical
Details: human recombinant HDAC6, same protocol as HDAC1
pIC50: −log10 of the molar value.
MEASUREMENT_NAME: pIC50

Before answering, review these 3 worked examples.
CN1Cc2ccc(-c3cn(Cc4ccc(-c5nnc(C(F)F)o5)cc4F)nn3)cc2C1 [Compound 4515] = 7.26
CN1CCN(Cc2ccccc2-c2cn(Cc3ccc(-c4nnc(C(F)F)o4)cc3F)nn2)CC1 [Compound 4587] = 6.74
Fc1cc(-c2nnc(C(F)F)o2)ccc1Cn1cc(-c2ccccc2CN2CCC2)nn1 [Compound 4583] = 6.44

[I] CCN1Cc2cccc(-c3cn(Cc4ccc(-c5nnc(C(F)F)o5)cc4F)nn3)c2C1 [Compound 4535]
[II] Cc1cnc(-c2cn(Cc3ccc(-c4nnc(C(F)F)o4)cc3F)nn2)s1 [Compound 17857]
Recorded pIC50 values differ for I and II ; which one is higher? // caller expects the label of the chosen entry II
(II: 7.21, I: 7.01)

[I] FC(F)c1nnc(-c2ccc(Cn3cc(-c4ccc(CN5CCC5)cc4)nn3)cc2)o1 [Compound 4548]
[II] CN1CCC(c2ccc(-c3cn(Cc4ncc(-c5nnc(C(F)F)o5)cc4F)nn3)cc2)CC1 [Compound 19087]
// compare: I vs II , metric pIC50, want the smaller Please respond with the label that marks your chosen entry. II
(II: 7.11, I: 7.88)
